Sourced from the supplement of paper PMC10126150

- Tested on: ATP;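 also: ATP exposure 15 min at 22 °C before imaging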
- PROCEDURE TEXT: switch fluorescence ratio, 500 uM ATP over buffer (Cy3 cluster intensity, sum of 5 cycles each) (fold (ratio)); higher = stronger signal-on switching upon ATP binding; sequences stand for … in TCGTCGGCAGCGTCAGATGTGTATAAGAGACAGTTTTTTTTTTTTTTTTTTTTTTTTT…TC
- RECORDED CONDITIONS: aptamer strand: ATP DNA aptamer (quencher-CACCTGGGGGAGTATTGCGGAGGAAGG + anchor), 100 nM annealed; ATP concentration: 500 uM
ASSAY READOUT: switch fluorescence ratio
Enter a number only.

Given the sequence CAGTTGTGTG , what is its reported switch fluorescence ratio? 0.994

Query: switch fluorescence ratio; subject: TTGGTTTCTT 1.01

Can you share its switch fluorescence ratio? I mean this sequence: GGGAGATATG 0.979

Returns the measured switch fluorescence ratio for the input sequence. Input: CGTCCATTGA 1.03

// query switch fluorescence ratio value for entry GGAAATCGGG 0.989

Any idea what its switch fluorescence ratio is? The sequence is AATTAAAAAT 0.987

Requested field: switch fluorescence ratio. Item: GAAGGTTATT 0.994

Reported switch fluorescence ratio for CGGTATCCGT : what is it? 0.978

# input sequence: TCACATTAAC ; wanted: its switch fluorescence ratio 1.04

Param item = TTGAAAAATT ; retrieve measured switch fluorescence ratio. 1.03

Given TTCCCGGCAG , state its recorded switch fluorescence ratio. 1.38

So what does the record say about switch fluorescence ratio for TATTTTGAAC ? 1.03

Which switch fluorescence ratio is reported for this sequence? GCAGTTTTAG 0.999

Would you mind telling me what switch fluorescence ratio value was observed for GGTGTTCAGG ? 1.04

// switch fluorescence ratio lookup, key: TTTTTTGGCC 0.993

Quick one: switch fluorescence ratio of TATTGGTGCA ? 0.967

Consider the sequence TGCTAGGGTC and give its measured switch fluorescence ratio. 0.994

What does the record list as switch fluorescence ratio for TTTAAGGCGT ? 1.03

Quick one: switch fluorescence ratio of CAGCTGGAGC ? 1

Consider the sequence shown here: TGGGCTTTGG What is its recorded switch fluorescence ratio? 0.999

* * *

- Tested on: ATP;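 also: ATP exposure 15 min at 22 °C before imaging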
- PROCEDURE TEXT: switch fluorescence ratio, 500 uM ATP over buffer (Cy3 cluster intensity, sum of 5 cycles each) (fold (ratio)); higher = stronger signal-on switching upon ATP binding; sequences stand for … in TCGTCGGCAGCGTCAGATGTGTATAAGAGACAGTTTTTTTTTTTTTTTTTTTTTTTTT…TC
- RECORDED CONDITIONS: aptamer strand: ATP DNA aptamer (quencher-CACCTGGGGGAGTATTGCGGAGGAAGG + anchor), 100 nM annealed; ATP concentration: 500 uM
ASSAY READOUT: switch fluorescence ratio
Answer with a number only.

I'd like to know its switch fluorescence ratio. The sequence in question is GATTGGTGAG 1

Name the recorded switch fluorescence ratio for TGTAGGGTAG . 0.958

GET /values?readout=switch fluorescence ratio&item= AGTGCGCTAT 1.03

Which switch fluorescence ratio value belongs to AGGTTTTGCA ? 0.991

Name the recorded switch fluorescence ratio for TGGTTCATCG . 0.978

Quick one: switch fluorescence ratio of TTTACTCGGA ? 1.03

For the sequence shown here, ATTTTTTCGC , give the reported switch fluorescence ratio. 0.995

Field request: switch fluorescence ratio | item: TTCTACTTTG 1.04

Which value of switch fluorescence ratio has been reported for AGTGGAGGT in the records? 0.97

Dear colleague, I am looking for the recorded switch fluorescence ratio of the following sequence: AGGTGCAGCA 1.06

Return reported switch fluorescence ratio; argument: TCCAATGTAA 1.06

What value of measured switch fluorescence ratio is listed for TATCGGGGCT ? 0.981

Which switch fluorescence ratio value belongs to GGTTCAAAAC ? 0.997

Suppose we examine the sequence AGCTTTAAAA ; what switch fluorescence ratio value has been reported? 0.981

For TATGACACTT , what is its reported switch fluorescence ratio? 1.03

What measured switch fluorescence ratio goes with CGACTTGGAA ? 1.02

Request the reported switch fluorescence ratio associated with CACGAGTTAG 1.03

Requested field: switch fluorescence ratio. Item: CGGGTGAGCT 1.11

Query (sequence): TCGATTCGAT ; field requested: switch fluorescence ratio 1.35

Given GGGGCATTTG , state its recorded switch fluorescence ratio. 0.983

If you can, please state the reported switch fluorescence ratio value of GCTTGAGTAC . 0.992

Please report the recorded switch fluorescence ratio for CGTTGCTTTT . 1.01

Tell me the measured switch fluorescence ratio of CCATCGTATG , please. 0.971

# input sequence: CCGCATTGGT ; wanted: its switch fluorescence ratio 4.77

What value of measured switch fluorescence ratio is listed for TAGGTCTGGG ? 1.01

switch fluorescence ratio for CAGGCTAAGA ? 1.03

Entry TTGTAGAGGG : reported switch fluorescence ratio = ? 1.01

Find the recorded switch fluorescence ratio belonging to CAGACTTCGG and report it. 0.934

Any idea what its switch fluorescence ratio is? The sequence is GCTGGGGGCA 1.05

Give its switch fluorescence ratio value. Item: GCGGGGGGCT 1.03

State the recorded switch fluorescence ratio for this entry: TTTATACCAG 1

Return reported switch fluorescence ratio; argument: ATATATTTAT 1.02

Give the measured switch fluorescence ratio of GCTTCAGAAA . 1

Endpoint output: switch fluorescence ratio of ACACAGGCTA . Value? 1.03

Item under review: ATTAGTTGGC . Reported switch fluorescence ratio? 0.993

Query: switch fluorescence ratio; subject: TGCTATGGGG 1

Which switch fluorescence ratio reading was recorded for the sequence CTTACGCAGC ? 1.59

So what's the measured switch fluorescence ratio for this one? GAATTGCGGG 1.02

Report switch fluorescence ratio for GTAACCAATT please. 1.01

Bench note: what switch fluorescence ratio did GTTAGGTATA show? 0.998

What value of switch fluorescence ratio has been reported for the following sequence? AATCCTGGCG 1.01

Suppose we examine the sequence AAAAGGAACT ; what switch fluorescence ratio value has been reported? 1.04

Request the reported switch fluorescence ratio associated with CCTGGGTCTG 1
